Tested on: S. pneumoniae ATCC 49619
Assay: Minimal inhibitory concentration (MIC) by broth microdilution (CLSI M7-A7)
Format: cell-based, Streptococcus pneumoniae
Details: Streptococcus pneumoniae, ATCC49619; cation-adjusted Mueller Hinton Broth supplemented with 3% (v/v) lysed horse blood; microdilution method
Entries annotated with measured log10 of MIC
Recall that a logarithmic scale is used here: each number is log10 of MIC in mg/L.

1. CCNC(=O)Nc1cc2c(-c3ccncc3)ccc(CNC(=O)CC3CC3)c2cn1	-0.30
2. CCNC(=O)Nc1cc2c(-c3ccncc3)ccc(CNC(=O)OCCN(C)C)c2cn1	0.60
3. CCNC(=O)Nc1cc2cccc(CNC(=O)OCc3ccncn3)c2cn1.Cl	0.60

Here is the next item to consider.
# input compound: `CCNC(=O)Nc1cc2cccc(CNC(=O)CCC(N)=O)c2cn1` ; wanted: its log10 of MIC
0.90
